- Experimental details: Lipophilicity, log D of the compound in octanol-phosphate buffered saline at 100 uM after 12 hrs by shake flask method
- Format: physicochemical
Observable: logD at 12 h, 100 µM

| Mol | Value measured |
| --- | --- |
| CN1CCC(Nc2ccc3ncc(-c4cnn(-c5ccc(F)cc5F)c4)n3n2)CC1 | 2.9 |
| CN1CCC(Nc2ccc3ncc(-c4cnn(-c5cccc(F)c5)c4)n3n2)CC1 | 3.1 |
| CN1CCC(Nc2ccc3ncc(-c4cnn(-c5ncccc5F)c4)n3n2)CC1 | 2.9 |
| CN1CCC(Nc2ccc3ncc(-c4cnn(Cc5ccccc5F)c4)n3n2)CC1 | 3 |
| CN1CCC(Nc2ccc3ncc(-c4cnn(-c5ccc(F)cn5)c4)n3n2)CC1 | 2.9 |
| Cc1cc(F)ccc1-n1cc(-c2cnc3ccc(NC4CCN(C)CC4)nn23)cn1 | 2.9 |
| CN1CCC(Nc2ccc3ncc(-c4cnn(-c5ccc(F)cc5)c4)n3n2)CC1 | 2.8 |
